- test_name: Cytotoxicity on the MRC-5 cell line (resazurin)
- Type: cell-based
- condition_label: human, MRC-5SV2 cells; MRC-5SV2, 3 days, resazurin
parameter_measured: log10(IC50 at 3 days) (log10 of the value in µM)
All values: base-10 log of IC50 at 3 days in µM.

Challenge: Quickly give me recorded log10(IC50 at 3 days) for Nc1nc(Nc2ccc3nc(-c4ccc(F)cc4)cc(N)c3c2)cc(N2CCC(CO)CC2)n1 [Compound 8n]
Response given: 0.57

Challenge: Quickly give me recorded log10(IC50 at 3 days) for Cc1cccc(-c2cc(Nc3ccc4nc(-c5ccc(F)cc5)cc(N)c4c3)nc(N)n2)c1 [Compound 1, reference compound]
Response given: 0.11

Challenge: Quickly give me recorded log10(IC50 at 3 days) for Nc1nc(Nc2ccc3nc(-c4ccc(F)cc4)cc(N)c3c2)cc(OCCO)n1 [Compound 9b]
Response given: 0.90

Challenge: Quickly give me recorded log10(IC50 at 3 days) for CC(C)(C)OC(=O)NC1CCN(c2cc(Nc3ccc4nc(-c5ccc(F)cc5)cc(N)c4c3)nc(N)n2)CC1 [Compound 8i]
Response given: 0.11

Challenge: Quickly give me recorded log10(IC50 at 3 days) for NCC1CCN(c2cc(Nc3ccc4nc(-c5ccc(F)cc5)cc(N)c4c3)nc(N)n2)CC1 [Compound 8h]
Response given: 0.90

Challenge: Quickly give me recorded log10(IC50 at 3 days) for CN(CCO)c1cc(Nc2ccc3nc(-c4ccc(F)cc4)cc(N)c3c2)nc(N)n1 [Compound 8l]
Response given: 0.89

Challenge: Quickly give me recorded log10(IC50 at 3 days) for Nc1nc(Nc2ccc3nc(-c4ccc(F)cc4)cc(N)c3c2)cc(N2CCC(N)CC2)n1 [Compound 8j]
Response given: 1.34

###

- test_system: MsNDH-2 (Mycolicibacterium smegmatis)
- Sequence (A0QYD6 1-457): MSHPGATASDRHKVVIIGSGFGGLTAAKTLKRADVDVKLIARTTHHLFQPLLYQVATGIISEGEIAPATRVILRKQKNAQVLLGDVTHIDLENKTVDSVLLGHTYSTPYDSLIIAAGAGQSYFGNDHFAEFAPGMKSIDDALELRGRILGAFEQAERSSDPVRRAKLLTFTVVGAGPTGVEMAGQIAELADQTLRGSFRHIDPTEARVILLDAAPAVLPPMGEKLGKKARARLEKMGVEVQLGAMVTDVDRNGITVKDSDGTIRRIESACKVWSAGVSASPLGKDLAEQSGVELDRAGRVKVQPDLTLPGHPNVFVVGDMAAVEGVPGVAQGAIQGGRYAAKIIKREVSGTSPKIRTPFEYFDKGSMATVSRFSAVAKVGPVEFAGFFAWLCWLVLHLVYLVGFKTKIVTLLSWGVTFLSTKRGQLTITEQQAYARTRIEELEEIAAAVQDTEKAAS
- test_name: Inhibition of MsNDH-2 (NADH oxidation with menadione, absorbance at 340 nm)
- Assay type: biochemical, M. smegmatis
- condition_label: 95% confidence interval in parentheses; 50 nM enzyme, 50 μM menadione; >100: no significant inhibition at 100 μM
parameter_measured: pIC50
// pIC50: -log10(molar conc.)

Challenge: Print MsNDH-2 (Mycolicibacterium smegmatis) pIC50 for Nc1cc(-c2ccc(F)cc2)nc2ccc(Nc3cc(N4CCNCC4)ncn3)cc12 .
Response given: 4.64

Challenge: Print MsNDH-2 (Mycolicibacterium smegmatis) pIC50 for CN(C)c1cc(Nc2ccc3nc(-c4ccc(F)cc4)cc(N)c3c2)nc(N)n1 .
Response given: 5.57

Challenge: Print MsNDH-2 (Mycolicibacterium smegmatis) pIC50 for CNCCN(C)c1cc(Nc2ccc3nc(-c4ccc(F)cc4)cc(N)c3c2)nc(N)n1 .
Response given: 4.72

Challenge: Print MsNDH-2 (Mycolicibacterium smegmatis) pIC50 for Nc1nc(Nc2ccc3nc(-c4ccc(F)cc4)ccc3c2)cc(N2CCNCC2)n1 .
Response given: 4.49

Challenge: Print MsNDH-2 (Mycolicibacterium smegmatis) pIC50 for Nc1nc(Nc2ccc3nc(-c4ccc(F)cc4)cc(N)c3c2)cc(N2CCC(N)CC2)n1 .
Response given: 4.68

Challenge: Print MsNDH-2 (Mycolicibacterium smegmatis) pIC50 for Fc1ccc(-c2ccc3cc(Nc4cc(N5CCNCC5)ncn4)ccc3n2)cc1 .
Response given: 4.62

Challenge: Print MsNDH-2 (Mycolicibacterium smegmatis) pIC50 for CC(C)N1CCN(c2cc(Nc3ccc4nc(-c5ccc(F)cc5)cc(N)c4c3)nc(N)n2)CC1 .
Response given: 4.72

Challenge: Print MsNDH-2 (Mycolicibacterium smegmatis) pIC50 for NCC1CCN(c2cc(Nc3ccc4nc(-c5ccc(F)cc5)cc(N)c4c3)nc(N)n2)CC1 .
Response given: 5.16

Challenge: Print MsNDH-2 (Mycolicibacterium smegmatis) pIC50 for Nc1nc(Nc2ccc3nc(-c4ccc(F)cc4)cc(N)c3c2)cc(OCCO)n1 .
Response given: 4.89

Challenge: Print MsNDH-2 (Mycolicibacterium smegmatis) pIC50 for Nc1cc(-c2ccc(F)cc2)nc2ccc(Nc3cc(Cl)ncn3)cc12 .
Response given: 5.29
